Consider the following compounds and their measured pIC50 readings.
# Test system: BT474 and HN5 tumor cell lines
# Protocol notes: Methylene blue growth inhibition assay (cellular Method A)
# Format: cell-based, Human
# Assay conditions: Homo sapiens, BT-474, 72 h, 3 days, read-out: Activity (Method): growth inhibition IC50 class
pIC50: −log10 of the molar value.

Below are worked cases with known answers.
Nc1cccc(C(=O)Nc2cccc(-c3nn4ccccc4c3-c3ccnc(Nc4ccccc4)n3)c2)c1 : 6.00 to 7.00
CC(=O)Nc1cccc(Nc2nccc(-c3c(-c4cccc(NC(=O)c5cc(F)ccc5F)c4)nn4ccccc34)n2)c1 : 6.00 to 7.00
Cc1noc(C)c1C(=O)Nc1cccc(-c2nn3ccccc3c2-c2ccnc(Nc3cccc(F)c3)n2)c1 : 6.00 to 7.00

Lab note: measured pIC50 of Cc1cc(C(=O)Nc2cccc(-c3nn4ccccc4c3-c3ccnc(Nc4cccc(F)c4)n3)c2)n(C)n1 was < 6.00

// recorded pIC50 for O=C(Nc1cccc(-c2nn3ccccc3c2-c2ccnc(Nc3ccc(-c4cc[nH]n4)cc3)n2)c1)c1c(F)cccc1F : 6.00 to 7.00

// sample CN1CCc2ccc(Nc3nccc(-c4c(-c5cccc(NC(=O)c6c(F)cccc6F)c5)nn5ccccc45)n3)cc2C1 , its pIC50 was > 7.00

The compound identified as COC(=O)CCCOc1ccc(Nc2nccc(-c3c(-c4cccc(NC(=O)c5c(F)cccc5F)c4)nn4ccccc34)n2)cc1Cl registered its pIC50 at 6.00 to 7.00

Lab note: measured pIC50 of O=C(Nc1cccc(-c2nn3ccccc3c2-c2ccnc(Nc3ccc(Cc4ccncc4)cc3)n2)c1)c1c(F)cccc1F was > 7.00

Cn1cccc1C(=O)Nc1cccc(-c2nn3ccccc3c2-c2ccnc(Nc3cccc(F)c3)n2)c1 has a reported pIC50 of 6.00 to 7.00

Entry O=C(Nc1cccc(-c2nn3ccccc3c2-c2ccnc(Nc3ccc4cnccc4c3)n2)c1)c1c(F)cccc1F , pIC50 reported as < 6.00

The compound NC1Cc2ccc(Nc3nccc(-c4c(-c5cccc(NC(=O)c6c(F)cccc6F)c5)nn5ccccc45)n3)cc2C1 (centres unmarked) showed pIC50 equal to > 7.00

Notebook: O=C(Nc1cccc(-c2nn3ccccc3c2-c2ccnc(Nc3cccc(F)c3)n2)c1)c1ccncc1 , pIC50 read as 6.00 to 7.00

According to the records, this compound Cc1cccc(C(=O)Nc2cccc(-c3nn4ccccc4c3-c3ccnc(Nc4ccccc4)n3)c2)c1 displays pIC50 of 6.00 to 7.00

Just so you know, measured pIC50 for O=C(Nc1cccc(-c2nn3ccccc3c2-c2ccnc(Nc3cccc(F)c3)n2)c1)c1ccccc1C(F)(F)F came out at > 7.00

According to the records, this compound O=C(Nc1cccc(-c2nn3ccccc3c2-c2ccnc(Nc3cccc(F)c3)n2)c1)c1ccc(F)cc1Cl displays pIC50 of 6.00 to 7.00

Noted for O=C(Nc1cccc(-c2nn3ccccc3c2-c2ccnc(Nc3ccc4c(c3)OCCO4)n2)c1)c1ccccc1Cl : its pIC50 reads > 7.00

Lab note: measured pIC50 of Cn1cccc1C(=O)Nc1cccc(-c2nn3ccccc3c2-c2ccnc(Nc3cccc(C#N)c3)n2)c1 was > 7.00

Data point: O=C(Nc1cccc(-c2nn3ccccc3c2-c2ccnc(Nc3cccc(F)c3)n2)c1)c1ccno1 ; pIC50 = 6.00 to 7.00

Record O=C(Nc1cccc(-c2nn3ccccc3c2-c2ccnc(Nc3cccc(F)c3)n2)c1)c1ccnc(Cl)c1 . Reported pIC50: < 6.00

What the record says about O=C(Nc1cccc(-c2nn3ccccc3c2-c2ccnc(Nc3cccc(F)c3)n2)c1)c1ccc(F)cc1F : pIC50 is 6.00 to 7.00

Data credit: patent US7812022B2
